Reference source: ChEMBL document CHEMBL2086387

# systemTested: UniProt:P0DMS8
# Sequence (P0DMS8 whole entry): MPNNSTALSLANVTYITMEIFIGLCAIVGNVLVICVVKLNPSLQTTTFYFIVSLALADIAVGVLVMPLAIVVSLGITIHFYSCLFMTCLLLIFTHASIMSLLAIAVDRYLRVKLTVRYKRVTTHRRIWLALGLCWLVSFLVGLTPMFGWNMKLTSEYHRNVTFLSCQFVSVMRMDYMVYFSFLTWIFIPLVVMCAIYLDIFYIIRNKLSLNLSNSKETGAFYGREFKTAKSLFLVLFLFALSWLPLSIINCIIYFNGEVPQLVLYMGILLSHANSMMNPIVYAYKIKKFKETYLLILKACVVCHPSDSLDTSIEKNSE
# method: Activity at human adenosine A3 receptor expressed in CHO cells assessed as inhibition of forskolin-stimulated cAMP production at 10 uM incubated for 45 mins prior to forskolin-stimulation measured after 15 mins by enzyme immunoassay relative to 10 uM NECA
# Type: functional, cell-based

# molSmiles, Efficacy / %
measured = [
    ("O[C@@H]1[C@H](O)[C@@H]2C[C@@H]2[C@H]1n1cnc2c(NCCc3ccccc3)nc(C#Cc3ccccc3)nc21", 4.1),
    ("O[C@@H]1[C@H](O)[C@@H]2C[C@@H]2[C@H]1n1cnc2c(NCC(c3ccccc3)c3ccccc3)nc(C#Cc3ccccc3Cl)nc21", -2.6),
    ("CCNc1nc(C#Cc2ccccc2)nc2c1ncn2[C@H]1[C@H](O)[C@H](O)[C@@H]2C[C@@H]21", 0.8),
    ("O[C@@H]1[C@H](O)[C@@H]2C[C@@H]2[C@H]1n1cnc2c(NCc3cccc(Cl)c3)nc(C#Cc3ccc(-c4ccccc4)cc3)nc21", -3.5),
    ("O[C@@H]1[C@H](O)[C@@H]2C[C@@H]2[C@H]1n1cnc2c(NCc3cccc(Cl)c3)nc(C#Cc3ccc(F)c(F)c3)nc21", 13.6),
    ("CONc1nc(C#Cc2ccccc2Cl)nc2c1ncn2[C@H]1[C@H](O)[C@H](O)[C@@H]2C[C@@H]21", 9),
    ("O[C@@H]1[C@H](O)[C@@H]2C[C@@H]2[C@H]1n1cnc2c(NCc3cccc(Cl)c3)nc(C#Cc3ccccc3)nc21", 13.8),
    ("O[C@@H]1[C@H](O)[C@@H]2C[C@@H]2[C@H]1n1cnc2c(NCC(c3ccccc3)c3ccccc3)nc(C#Cc3ccc(-c4ccccc4)cc3)nc21", 6),
    ("CNc1nc(C#Cc2ccccc2)nc2c1ncn2[C@H]1[C@H](O)[C@H](O)[C@@H]2C[C@@H]21", 12.6),
    ("O[C@@H]1[C@H](O)[C@@H]2C[C@@H]2[C@H]1n1cnc2c(NCc3cccc(Cl)c3)nc(C#Cc3ccccc3Cl)nc21", 22.1),
    ("CNc1nc(C#Cc2ccccc2Cl)nc2c1ncn2[C@H]1[C@H](O)[C@H](O)[C@@H]2C[C@@H]21", 2.9),
    ("O[C@@H]1[C@H](O)[C@@H]2C[C@@H]2[C@H]1n1cnc2c(NCC(c3ccccc3)c3ccccc3)nc(C#Cc3ccccc3)nc21", 0.4),
    ("CONc1nc(C#Cc2ccccc2)nc2c1ncn2[C@H]1[C@H](O)[C@H](O)[C@@H]2C[C@@H]21", 29.8),
    ("O[C@@H]1[C@H](O)[C@@H]2C[C@@H]2[C@H]1n1cnc2c(NCC(c3ccccc3)c3ccccc3)nc(C#Cc3ccc(F)c(F)c3)nc21", 4),
    ("CCNc1nc(C#Cc2ccccc2Cl)nc2c1ncn2[C@H]1[C@H](O)[C@H](O)[C@@H]2C[C@@H]21", -7),
    ("O[C@@H]1[C@H](O)[C@@H]2C[C@@H]2[C@H]1n1cnc2c(NCC(c3ccccc3)c3ccccc3)nc(C#Cc3cccc(Cl)c3)nc21", -7.4),
    ("O[C@@H]1[C@H](O)[C@@H]2C[C@@H]2[C@H]1n1cnc2c(NCc3cccc(Cl)c3)nc(C#Cc3cccc(Cl)c3)nc21", 4.5),
]
